- measured_target: DNA gyrase (Escherichia coli, UniProt P0AES4+P0AES6)
- method: Inhibition of Escherichia coli DNA gyrase assessed as conversion of NADH to NAD+ by ATPase assay
- Format: protein-complex assay
measured_metric: pIC50
Scale note: pIC50 = -log10(concentration in M).

Task item: Recorded pIC50 for CCn1cc(C(=O)O)c(=O)c2ccc(NC(=O)c3[nH]c(C)c(Cl)c3Cl)cc21 , please?
Reply: 6.00

---

Entries and their measured Activity follow.
- method: Inhibition of Escherichia coli DNA topoisomerase 4 assessed as residual activity at 1 uM using biotinylated oligonucleotide as substrate incubated for 30 mins in presence of ATP by fluorescence-based microplate reader assay relative to control
Give your result in % as a bare value.

Example cases with answers are listed next.
# smiles_record, experimental_result
records = [
    ("Cc1[nH]c(C(=O)Nc2ccc(C(=O)N[C@@H](C)C(=O)O)cc2OC2CCN(C(=O)OC(C)(C)C)CC2)c(Cl)c1Cl", 88),
    ("Cc1[nH]c(C(=O)Nc2ccc(-n3nn[nH]c3=O)cc2)c(Cl)c1Cl", 94),
    ("Cc1[nH]c(C(=O)Nc2ccc(C(=O)N[C@H](C)C(=O)O)cc2OC2CCN(C(=O)OC(C)(C)C)CC2)c(Cl)c1Cl", 99),
    ("Cc1[nH]c(C(=O)Nc2ccc(C(=O)N[C@H](C)c3n[nH]c(=S)o3)cc2OC(C)C)c(Cl)c1Cl", 92),
    ("COC(=O)CNC(=O)c1ccc(NC(=O)c2[nH]c(C)c(Cl)c2Cl)c(O[C@H]2CCNC2)c1", 90),
]

Task item: Recorded Activity for O=C(O)CNC(=O)c1ccc(NC(=O)c2cc(Br)c(Br)[nH]2)c(OC2CCNCC2)c1 , please?
Reply: 100

Task item: Recorded Activity for COC(=O)[C@@H](C)NC(=O)c1ccc(NC(=O)c2[nH]c(C)c(Cl)c2Cl)c(OC2CCNCC2)c1 , please?
Reply: 89

Task item: Recorded Activity for Cc1[nH]c(C(=O)Nc2ccc(C(=O)NS(C)(=O)=O)cc2)c(Cl)c1Cl , please?
Reply: 98

Task item: Recorded Activity for CCn1cc(C(=O)O)c(=O)c2ccc(NC(=O)c3[nH]c(C)c(Cl)c3Cl)cc21 , please?
Reply: 92

---

Entries and their measured Activity follow.
- measured_target: DNA gyrase (Escherichia coli) (UniProt P0AES6+P0AES4)
- method: Inhibition of Escherichia coli DNA gyrase assessed as residual activity at 1 uM using biotinylated oligonucleotide as substrate incubated for 30 mins in presence of ATP by fluorescence-based microplate reader assay relative to control
- Type: protein-complex assay
Give your result in % as a bare value.

# smiles_record, Activity, %
rows = [
    ("CCOC(=O)c1cc2cc(NC(=O)c3[nH]c(C)c(Cl)c3Cl)ccc2[nH]1", 100),
    ("COC(=O)CNC(=O)c1ccc(NC(=O)c2[nH]c(C)c(Cl)c2Cl)c(OC2CCN(C(=O)OC(C)(C)C)CC2)c1", 100),
    ("CCOC(=O)C(NC(=O)c1ccc(NC(=O)c2cc(Br)c(Br)[nH]2)cc1)C(=O)OCC", 78),
    ("Cc1[nH]c(C(=O)Nc2ccc(S(=O)(=O)Nc3nccs3)cc2)c(Cl)c1Cl", 100),
]

Task item: Find the measured Activity: item COC(=O)CNS(=O)(=O)c1ccc(NC(=O)c2[nH]c(C)c(Cl)c2Cl)cc1 , target or system DNA gyrase (Escherichia coli) (UniProt P0AES6+P0AES4).
Reply: 87

Task item: Find the measured Activity: item COC(=O)[C@@H](C)NC(=O)c1ccc(NC(=O)c2[nH]c(C)c(Cl)c2Cl)c(OC2CCN(C(=O)OC(C)(C)C)CC2)c1 , target or system DNA gyrase (Escherichia coli) (UniProt P0AES6+P0AES4).
Reply: 94

Task item: Find the measured Activity: item COC(=O)CNC(=O)c1ccc(NC(=O)c2cc(Br)c(Br)[nH]2)c(OC2CCN(C(=O)OC(C)(C)C)CC2)c1 , target or system DNA gyrase (Escherichia coli) (UniProt P0AES6+P0AES4).
Reply: 100

Task item: Find the measured Activity: item Cc1[nH]c(C(=O)Nc2ccc(S(=O)(=O)NCC(=O)O)cc2)c(Cl)c1Cl , target or system DNA gyrase (Escherichia coli) (UniProt P0AES6+P0AES4).
Reply: 87

Task item: Find the measured Activity: item Cc1[nH]c(C(=O)Nc2ccc(C(=O)N[C@H](C)C(=O)NN)cc2OC(C)C)c(Cl)c1Cl , target or system DNA gyrase (Escherichia coli) (UniProt P0AES6+P0AES4).
Reply: 89
